// provenance: the supplement of paper PMC9170038

- Tested on: MS2 coat protein
- assay.details: apparent KD of MS2 coat protein; designed switch direction (-1 OFF switch, 1 ON switch): -1; higher = weaker reporter binding
- condition.parameters: input ligand: none
Rule: met for apparent KD of MS2 coat protein not less than 30 nM, not met for anything less.

| biosequence | cat |
| --- | --- |
| CAUUCCGAGCGAGGAUAUCAGUAAAAGGGAAGCUGAGAAGGCGCAAACAUGAGGAUCACCCAUGUCACACGCGGGUAGUUUUCC [Ditiso] (Eterna round: R96, puzzle: Exclusion NG 1) | not met |
| GGUCUACAUGAGGAUCACCCAUGUAAGGAUAUCGUCACUGGAGCCUCGGCUCCAGUGACGAGAAGGUACGUAAU [E1/12-A2] (Eterna round: R97, puzzle: Exclusion 1) | met |
| UGAUCUAGCGGAGGAUAUACAUGAGGAUCACCCAUGUAGUAGUCUGUACCGUAGUGCAGACUUGUGUAGAAGGCCGCUAGAUCU [JL ENG2 3.61] (Eterna round: R96, puzzle: Exclusion NG 2) | not met |
| UAAUUGUGAGGAUAUCUGGCUUCGAUCGUGAGAUCGAGGCUAGAGAAGGCACAUGAGGAUCACCCAUGUUCCUU [jl-ex4-4.10 salish99 mod] (Eterna round: R97, puzzle: Exclusion 4) | not met |

----------
- Tested on: MS2 coat protein
- assay.details: apparent KD of MS2 coat protein; designed switch direction (-1 OFF switch, 1 ON switch): -1; higher = weaker reporter binding
- condition.parameters: Eterna round: R95; input ligand: none

| biosequence | measurement.target | apparent KD of MS2 coat protein, nM |
| --- | --- | --- |
| AAGAAACAUGAGGAUCACCCAUGUGAGGAUAUGAUAAAGAAAAGAAAAGAAAGAAGACUCAGAAGGCACAAAGG [salish99-ex1_r3_041] (puzzle: Exclusion 1) | MS2 coat protein | 28.9 |
| CCGAGGUGGCGGUCCUAUGACAUGAGGAUCACCCAUGUACCUCGCCACAAGCUUUUUGCUCAUCUUAUAAUUCUCGG [Gelelebius] (puzzle: Sensor v3, turn-off variant 1) | MS2 coat protein | 16.1 |
| GAUUGACAUGAGGAUCACCCAUGUGAGGAUAUCGUCUGGUACGUGUUGGCUGGCAUCUCGAGAAGGCGCAUAGG [Exclusion 1 V56] (puzzle: Exclusion 1) | MS2 coat protein | 76.4 |
| GAAAAGUGAGGAUAUGGUAAAAGAAAAAGAAAAAGAAAACUCCAGAAGGCACAUGAGGAUCACCCAUGUAAAAG [salish99_ex4_r3_005] (puzzle: Exclusion 4) | MS2 coat protein | 23.6 |
| AAUAAGUGAGGAUAUACUAAAAUAUGAAUAAAAUAAAUAAAACAUGAGGAUCACCCAUGUAGAAGGCACAAUAA [JMF's Not so obvious solution 5] (puzzle: Exclusion 2) | MS2 coat protein | 22.2 |

----------
- System: MS2 coat protein
- assay.details: apparent KD of MS2 coat protein; designed switch direction (-1 OFF switch, 1 ON switch): -1; higher = weaker reporter binding
- condition.parameters: Eterna round: R95; input ligand: microRNA oligo, concentration not stated
reported.endpoint: apparent KD of MS2 coat protein (nM)

| biosequence | display.unit | endpoint.result |
| --- | --- | --- |
| GGUUAAUGCAAGGAUAUGCUAUUAUUUUAUUUUGCAGAAGGUGCAACAUGAGGAUCACCCAUGUUGGAGGGUUU [JR_E6_Sub025] (puzzle: Exclusion 6) | nM | 18.6 |
| AGUACUAACACGGCAGUGUUAGUACAAUAAGCUUGUGAAACAUGAGGAUCACCCAUGUCCUCAUAAGCUCGUCUUAU [salish99_TOv2_r3_065] (puzzle: Sensor v3, turn-off variant 2) | nM | 423 |
| GGGUGACAUGAGGAUCACCCAUGUGAGGAUAUCUGGAUACUCUUUAUUUUAGAUAUCCAGAGAAGGCACACCCU [Ex1-3: 6Z] (puzzle: Exclusion 1) | nM | 356 |
| CAUACUCAAGUCAGGAUAUAGACUCGGAUACGGAUCUAGAAGGGACAUGAGGAUCACCCAUGUAGAGAGUAAAG [EX-4 Malc #26] (puzzle: Brourd's mod of Exclusion 4) | nM | 28.1 |
| ACAAGCUUAUUGCUCGGGUACAUGAGGAUCACCCAUGUUAGUGAUUAUAGAGAAUGUGUUGACGUGCGCUGCAGGUU [JR_SV3TOV1_Sub079] (puzzle: Sensor v3, turn-off variant 1) | nM | 46 |

----------
- System: MS2 coat protein
- assay.details: apparent KD of MS2 coat protein; designed switch direction (-1 OFF switch, 1 ON switch): -1; higher = weaker reporter binding
- condition.parameters: input ligand: FMN 200 uM
sequences and their reported apparent KD of MS2 coat protein

| biosequence | measurement.target | display.unit | apparent KD of MS2 coat protein |
| --- | --- | --- | --- |
| AGGCUGUCAGGAUAUCUGCGCCGCUGUACGCGGCGUUAUAAAGAGAAGGGACAUGAGGAUCACCCAUGUCCUCA [EX4 B.14] (Eterna round: R97, puzzle: Exclusion 4) | MS2 coat protein | nM | 109 |
| AUGUAAGCGGAGGAUAUCUGGUGGAUACAGAUGGGAGAAGGUCGCACAUGAGGAUCACCCAUGUCGCAGAGAUG [Eternabot (L2) Solution 83] (Eterna round: R97, puzzle: Exclusion 6) | MS2 coat protein | nM | 44.1 |
| AGUAGGUCUACCUUGGUGGAUCUGCAUUUUUGCAGGUGUACAUGAGGAUCACCCAUGUCCUCAUUUGCUCGUCUUAU [JL turnoff v2 99.30] (Eterna round: R96, puzzle: Sensor v3, turn-off variant 2) | MS2 coat protein | nM | 555 |

----------
- Tested on: K4 kissing-loop RNA reporter
- assay.details: apparent KD of K4 kissing-loop reporter; higher = weaker reporter binding
- condition.parameters: Eterna round: R107; input ligand: arginine 13.2 mM

| biosequence | apparent KD of K4 kissing-loop reporter |
| --- | --- |
| GGGAGUUAUUACGGCAGGGUCGAUACGGAUACCAGUAGGCGGCUCUACCCUUGGCAGCCGUAACAUGGUAGUGAUGUUAUCAGUC [theeternabot_exclusion_KL_Theo_A_24] | 420 nM |
| AUUUAGACGAGUGAUGUUCGUGUUAUUACAGAGGAUAUGCGUAAUUGCAGAAGGCUGUAUUUAUAUAUGUUAUGUAAUUUUAAAA [JR_ExcFMNA_Sub007] | 108 nM |
| GGUAGCGCCAGAGAUACCAGUCAUAUCGCUCUGGAGUGAUGUUCCGGAACGUGCGGAGAAGACCCUUGGCAGCUCAUGACGGUAU [Exclusion Theophylline B GF 3] | 175 nM |
| GCCUGUGCACGAAGGAGCGCCGUGACAGGUUACUGCCUUGGGCAGUGAUGUUGCUCAAUCUGGCAGGUAGGUCGCGUGCACAGGC | 145 nM |
| GGGAGUAGUGCGGCCGCCACUGAGAAAGAAGAAGAAUAUAGUGAUGUUAUAUAGGAAAGGAAGAACAGGACCGGGCAUUAGAGGG [SSTRyptB.C] | 171 nM |
| UGUACCGAGUCAGGAUAUCAACGACUGACAAAGUCGGUCGAAUAUCCAGUGAUGUUGGAAAAUAAAUGAGAAGGGACUUGGUACU [FmnBS 12 #SwitchBubble #StaticStem] | 361 nM |
| UGGCGGCAAGGGUUAUUGGAAAGUAUUCGUCGAGGACCGGUACGGCCGCCACUCGAACACCAGUGAUGUUGGUCUGGUUUAAGCU [Exclusion Tryptophan A GF 22] | 690 nM |
| UGACUUGCCUGAGGAUAUCUAGGAUAUCCAUAAAAGGAAAUAAUAGUUCAGUGAUGUUGGAGAAGGAGAGAAGGCAGGUAAGUCU [KL-XFMN-B18 #DoubleAptamer #SwitchBubble] | 514 nM |
| UGUCAUUGGUCUGAUACCAGAAGAAAUCUGGAGUGAUGUUCCAAGUACGACAAAAGUCGCUUCCCUUGGCAGCAGACCGAUGACU [TheoBS 21 #SwitchBubble 13 #StaticStem] | 510 nM |
| UGAGGAGAAUAUGAUACCAGCAGAGAGAGAGAGGAAGUAUAGUGAUGUUAUAUGAGAUAAUGCCCUUGGCAGCAUAAGAAGAAGG [#19 K4 Theophylline B Same State] | 104 nM |
| UGAUAGGACAGAAGGAGCGGAAGUGAUGUUUCCAAAAGGAGAGGUCGACAAAGUCGACCCUUCCAGGUAGGUCGCUGUCCUAUCU [ArgBX 10 #Palindromic #SwitchBubble #StaticStem] | 83.5 nM |

----------
Listed here: items and their measured apparent KD of K4 kissing-loop reporter.
- Tested on: K4 kissing-loop RNA reporter;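 note: bound reporter read as fluorescence of individual clusters on recovered sequencing chips by microscopy, with normalized cluster intensities fitted with a binding model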
- assay.details: apparent KD of K4 kissing-loop reporter; higher = weaker reporter binding
- condition.parameters: Eterna round: R107; input ligand: none

| biosequence | apparent KD of K4 kissing-loop reporter |
| --- | --- |
| GAGAUAGAGGCGGCCGCCACUAGUGAUGUUAGUGAUGUUAGAAAGAGAAUAGAACAGGGAUUUGAUAGGACCGGGCCAGAUGGAG [wwemullin] | 48.9 nM |
| CCUGCAGCUGUAACCGAGUGAUGCUACGGACGAGGACCGGUACGGCCGCCACUCGCCAGUGAUGUUGGUGUGGGAGGACGUAACU [KL-XTryp-A22] | 190 nM |
| GCCUGUGCACGAAGGAGCGCCGUGACAGGUUACUGCCUUGGGCAGUGAUGUUGCUCAAUCUGGCAGGUAGGUCGCGUGCACAGGC | 166 nM |
| CCUUUCAGUUACGAUACCAGUCUAAUAUAUUUGAUCAAUACCCUCGCCGAGUGAUGUUCGGACCCUUGGCAGCGUCUGGGACAGG [gbbymullin] | 525 nM |
| CAUACGAAGCAGUGAUGUUGCUUAUGAGAAGGAGCGCACGAAAGUGCAGGUAGGUCGCUCAGCCAUGUGGACGAAAACGUCCACA [whbob_SS_Arginine_A_sa112] | 276 nM |
| AGACUACCACACUGUCAAUAGACAGUGUACUAGGAUAUGCUGAUAAGCAGAAGGAGUGAUGUUCCAAGGUAGUCAAUAAAAUAAU [FmnAX 13 U28+A66] | 206 nM |
| AGCCGAAAGGCGAGUGCUGUCGCUCCGGAAGGAGCGCAGGAAACUGCAGGUAGGUCGCCGGAGUGAUGUUUUGGUGCAGCACUCA [Omei KL Arginine A Exc B v7] | 129 nM |
| GCGCGUCAUGUCAGCGGUGACACUGUCGAUACCAGCGCCGUAAGGCGCCCUUGGCAGCGACGUGCUGGAGUGAUGUUCCAGCGUC [#2 Exclusion - Theophylline A Attempt #20 (HarryS)] | 149 nM |
| CUAUGGAAACAUAGUAAUCGGGAAACCGAUACCAGUAUGGAAACAUACCCUUGGCAGCGGAAUGAUUAAACGGAGUGAUGUUCCG [Theophylline A K4 17] | 285 nM |
| ACGCGCGCGAGUGAUGUUCGGAGCGGCUGGCAGGAUAUGUAGCAAUGCAGAAGGGUCGUGGCUGCUGGUAGGAAACUACUGGCAG [#2 Exclusion - FMN A Attempt #4 (HarryS)] | 424 nM |
| GCAGUGAUGUUGCACGAGUAGGCUGGAGUACGAGGACCGGUACGGCCGCCACUCGUACGAAAGUCGCUAAUUUAUGGAAUGGUGA [#07 K4 Tryptophan A Same State] | 668 nM |
| AUCUUGUUUGGAGGAUAUUCUUUAUUCGACAUAACCUUCUAUAAGGUGCAGUGAUGUUGCAAUAUAGGAGAAGGUCGAGUGAGAU [Exclusion FMN B GF 17] | 188 nM |
| CGCCACGACUGAAGGAGCGCGCCAGUGAUGUUGGACGGCUUUGUCAAGGAAACUGCACCGGUGCAGGUAGGUCGCAGUUCGUGGU [Quisbiri] | 537 nM |
| CGCCGUAAGGCGGUCGCUCCCACUCCGGAAGGAGCGCCCGCAAGGGCAGGUAGGUCGCCGGAGUGAUGUUCCGGUGGAGGGACCG [#2 Exclusion - Arginine A Attempt #7 (Inspired by Omei)] | 260 nM |
| AGUUCUUGCCGAAGGAGCGAGGCAGAGUGAUGUUCUGCACGAGGUCGAAAGACCUCGCUGCCUCAGGUAGGUCGCGGCAUGAACA [Omei KL Arginine B Exc A v2] | 1130 nM |
| UGGACCUGACUCGAUAAGAGUCAAUGAGAUACCAGUGACGAAAGUCACCCUUGGCAGCUCAACUGCCAGUGAUGUUGGUGGUCCU [#SwitchBubble 2 #StaticStem] | 769 nM |
| GUGCGGCUAGUGAUGUUGGUUGCGUGGGAAGGAGCGCAGAAACAUGCAGGUAGGUCGCCCACACCUCUGAAAGAAGGUUAAUUCA [Biistian] | 203 nM |
| CGGAACGCAUCGGCCGCCACUUUUAUCUGCAGUGAUGUUGCAGUAUCCGAGCAAGGCUGUUGUGAAAGGACCGGGAUGGUCCGUU [Tibeberi] | 92.7 nM |
| AAACAUUGGUCGGAUACCAGUUAGACCGAUAAGGUCAAAACUGGAGUGAUGUUCCCAAAUAACCCUUGGCAGCCGACCGAUGAAA [MAT - Same State Theophlline B - Mod of Eli - D11] | 167 nM |
| ACGCUGGUGAAUAACACUAGCGAAAAUUCGCGAGGACCGGUACGGCCGCCACUCGCUAACUGCGAGUGAUGUUCGAUAAUAAAAU [Mat - Mod of OpenEnded 3 - D8] | 165 nM |
| UUCUGCAUCUCGGCCGCCACUCACUAGUGAUGUUAGUAAGGAGCGACUAGACAUGUCCCGUUAUUGAGGACCGGGAGAGGCUCUU [#13 K4 Tryptophan B Exclusion] | 192 nM |
| AAUAAAAUCACGGCCGCCACUGAAUUAUUGGUAAGUAGUGAUGUUACUUUACAUAUCUAAUUUAACAGGACCGGGUGAAUAUUUA [#17 K4 Tryptophan B Exclusion] | 113 nM |
